METHOD: Oral bioavailability in rat at 9.68 mg/kg
Type: ADME, organism-based
RUN PARAMETERS: in vivo
PROPERTY NAME: bioavailability (%)
Give bare numbers, in %.

[[record]]
compound = "O=C(O)CC1CC2(CCN(C(=O)NC3C4CC5CC(C4)CC3C5)CC2)c2ccccc21 (configuration not stated)"
units_label = "%"
reading = 94


Value lookup for bioavailability; key = O=C(O)CC1CC2(CCN(C(=O)NC3C4CC5CC(C4)CC3C5)CC2)c2c(Br)cccc21 (configuration not stated) 90

###

Please provide measured pIC50 for the entries that follow.
MEASURED ON: 11-beta-hydroxysteroid dehydrogenase 1 (Homo sapiens, UniProt P28845)
Sequence (P28845 whole entry): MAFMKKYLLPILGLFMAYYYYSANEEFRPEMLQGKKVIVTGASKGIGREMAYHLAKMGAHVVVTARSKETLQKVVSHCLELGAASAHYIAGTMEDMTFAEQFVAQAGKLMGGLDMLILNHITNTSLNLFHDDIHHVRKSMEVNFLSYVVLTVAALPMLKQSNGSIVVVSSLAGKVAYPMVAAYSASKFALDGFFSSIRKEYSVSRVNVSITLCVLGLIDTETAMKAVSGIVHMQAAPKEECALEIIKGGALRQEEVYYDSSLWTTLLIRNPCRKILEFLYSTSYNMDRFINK
METHOD: Inhibition of 11beta-HSD1 in human adipocytes assessed as conversion of [3H]cortisone to [3H]cortisol after 2 hrs by SPA
Assay type: cell-based
Give bare numbers, as −log10 of the molar value.

Past entries and their recorded results:
[[record]]
compound = "O=C(O)C[C@@H]1CC2(CCN(C(=O)NC3C4CC5CC(C4)CC3C5)CC2)c2c(Br)cccc21 (single isomer, unassigned)"
measured_on = "11-beta-hydroxysteroid dehydrogenase 1 (Homo sapiens, UniProt P28845)"
reading = 8.12

[[record]]
compound = "O=C(O)CC1CC2(CCN(C(=O)NC3C4CC5CC(C4)CC3C5)CC2)c2c(Cl)cccc21 (centres undefined)"
measured_on = "11-beta-hydroxysteroid dehydrogenase 1 (Homo sapiens, UniProt P28845)"
reading = 7.97


Moving on to another compound below.
Would you kindly share the measured pIC50 for O=C(NC1C2CC3CC(C2)CC1C3)N1CCC2(CC1)CC(CCO)c1cccc(Br)c12 (centres undefined) ? 7.74

###

METHOD: Half life in mouse at 9.68 mg/kg, po and 1.9 mg/kg, iv
Assay type: ADME, organism-based
RUN PARAMETERS: in vivo
PROPERTY NAME: half-life (h)
Numbers only, in h.

Given the compound O=C(O)CC1CC2(CCN(C(=O)NC3C4CC5CC(C4)CC3C5)CC2)c2c(Br)cccc21 (stereo unspecified) , what is its reported half-life? 6.17

###

METHOD: Half life in cynomolgus monkey at 2 mg/kg, po and 1 mg/kg, iv
Type: ADME, organism-based, Macaca fascicularis
RUN PARAMETERS: in vivo
PROPERTY NAME: half-life
Give the figure together with its unit, number first.

So what does the record say about half-life for O=C(O)CC1CC2(CCN(C(=O)NC3C4CC5CC(C4)CC3C5)CC2)c2c(Br)cccc21 (stereo unspecified) ? 6.03 h

###

MEASURED ON: 11-beta-hydroxysteroid dehydrogenase 1 (Homo sapiens)
METHOD: Inhibition of human recombinant 11beta-HSD1 expressed in CHO cells assessed as conversion of [3H]cortisone to [3H]cortisol by SPA
Type: cell-based
Record form. Attribute: log10 IC50. Fill in for each entry.
Heads up, the numbers here are log10 of IC50 in nM units.

Some solved cases for reference:
[[record]]
compound = "Cc1cccc2c1C1(CCN(C(=O)NC3C4CC5CC(C4)CC3C5)CC1)CC2CC(=O)O (stereo not given)"
property_name = "log10 IC50"
reading = 0.88

[[record]]
compound = "O=C(O)CC1CC2(CCN(C(=O)NC3C4CC5CC(C4)CC3C5)CC2)c2cc(Cl)ccc21 (stereo not given)"
property_name = "log10 IC50"
reading = 0.53

[[record]]
compound = "O=C(O)C[C@H]1CC2(CCN(C(=O)NC3C4CC5CC(C4)CC3C5)CC2)c2c(Br)cccc21 (stereo not given in full)"
property_name = "log10 IC50"
reading = 0.04


# batch size: 2; output log10 IC50 per entry
1. O=C(O)C1CC2(CCN(C(=O)NC3C4CC5CC(C4)CC3C5)CC2)c2ccccc21 (stereo not given)
2. Cc1ccc2c(c1)C1(CCN(C(=O)NC3C4CC5CC(C4)CC3C5)CC1)CC2CC(=O)O (stereo not given)

[1.84, 0.95]

###

MEASURED ON: UniProtKB P28845
METHOD: Inhibition of 11beta-HSD1 in human adipocytes assessed as conversion of [3H]cortisone to [3H]cortisol after 2 hrs by SPA
Format: cell-based
PROPERTY NAME: IC50 (nM)
One number for each entry, in nM.

Below are worked cases with known answers.
[[record]]
compound = "O=C(NC1C2CC3CC(C2)CC1C3)N1CCC2(CCc3ccccc32)CC1 (centres undefined)"
property_name = "IC50"
reading = 2.7

[[record]]
compound = "O=C(O)C[C@H]1CC2(CCN(C(=O)NC3C4CC5CC(C4)CC3C5)CC2)c2c(Br)cccc21 (some centres undefined)"
property_name = "IC50"
reading = 2.5

[[record]]
compound = "O=C(O)CC1CC2(CCN(C(=O)NC3C4CC5CC(C4)CC3C5)CC2)c2ccc(Cl)cc21 (centres undefined)"
property_name = "IC50"
reading = 23.2


Provide each entry's IC50 from the list below.
1. Cc1ccc2c(c1)C1(CCN(C(=O)NC3C4CC5CC(C4)CC3C5)CC1)CC2CC(=O)O (centres undefined)
2. Cc1cccc2c1C1(CCN(C(=O)NC3C4CC5CC(C4)CC3C5)CC1)CC2CC(=O)O (centres undefined)
3. O=C(O)CC1CC2(CCN(C(=O)NC3C4CC5CC(C4)CC3C5)CC2)c2c(Br)cccc21 (centres undefined)
4. NC(=O)CC1CC2(CCN(C(=O)NC3C4CC5CC(C4)CC3C5)CC2)c2c(Br)cccc21 (centres undefined)
5. O=C(O)CC1CC2(CCN(C(=O)NC3C4CC5CC(C4)CC3C5)CC2)c2cc(Cl)ccc21 (centres undefined)

[22.5, 18.3, 5.3, 0.9, 30.2]

Find IC50 (UniProtKB P28845) for the entry CS(=O)(=O)NC(=O)CC1CC2(CCN(C(=O)NC3C4CC5CC(C4)CC3C5)CC2)c2c(Br)cccc21 (centres undefined) 22.3

###

METHOD: Clearance in mouse at 1.9 mg/kg, iv
Assay type: ADME, organism-based
Design: dose 1.9 mg/kg, route intravenous
RUN PARAMETERS: in vivo
PROPERTY NAME: clearance (mL/min/kg)
Answers are plain numbers, in mL/min/kg.

Need clearance of O=C(O)CC1CC2(CCN(C(=O)NC3C4CC5CC(C4)CC3C5)CC2)c2c(Br)cccc21 (stereo unspecified) , thanks. 28.1

###

Kindly state concentration at 4 h for each of the entries shown.
METHOD: Drug level in mouse plasma at 30 mg/kg, po after 4 hrs by LC-MS/MS analysis
Format: ADME, organism-based
Design: dose 30 mg/kg, route oral
Numbers only, in ng/mL.

[[record]]
compound = "O=C(O)C[C@H]1CC2(CCN(C(=O)NC3C4CC5CC(C4)CC3C5)CC2)c2c(Br)cccc21 (some centres not stated)"
property_name = "concentration at 4 h"
reading = 393


Switching to the query record.
Bench note: what concentration at 4 h did O=C(O)CC1CC2(CCN(C(=O)NC3C4CC5CC(C4)CC3C5)CC2)c2c(Br)cccc21 (configuration not stated) show? 442

###

MEASURED ON: 11-beta-hydroxysteroid dehydrogenase 1 (Homo sapiens, UniProt P28845)
METHOD: Inhibition of human recombinant 11beta-HSD1 expressed in CHO cells assessed as conversion of [3H]cortisone to [3H]cortisol by SPA
Format: cell-based
pIC50: −log10 of the molar value.
Would you please tag the item t when its pIC50 is 9 or above, and f when it is below?

Example cases with answers are listed next.
[[record]]
compound = "O=C(O)C[C@@H]1CC2(CCN(C(=O)NC3C4CC5CC(C4)CC3C5)CC2)c2c(Br)cccc21 (single isomer, unassigned)"
measured_on = "11-beta-hydroxysteroid dehydrogenase 1 (Homo sapiens, UniProt P28845)"
label_class = "f"

[[record]]
compound = "O=C(O)CC1CC2(CCN(C(=O)NC3C4CC5CC(C4)CC3C5)CC2)c2ccc(Cl)cc21 (stereo not drawn)"
measured_on = "11-beta-hydroxysteroid dehydrogenase 1 (Homo sapiens, UniProt P28845)"
label_class = "f"

[[record]]
compound = "O=C(O)CC1CC2(CCN(C(=O)NC3C4CC5CC(C4)CC3C5)CC2)c2c(Cl)cccc21 (stereo not drawn)"
measured_on = "11-beta-hydroxysteroid dehydrogenase 1 (Homo sapiens, UniProt P28845)"
label_class = "f"

[[record]]
compound = "CS(=O)(=O)NC(=O)CC1CC2(CCN(C(=O)NC3C4CC5CC(C4)CC3C5)CC2)c2c(Br)cccc21 (stereo not drawn)"
measured_on = "11-beta-hydroxysteroid dehydrogenase 1 (Homo sapiens, UniProt P28845)"
label_class = "f"


Given the entry NC(=O)CC1CC2(CCN(C(=O)NC3C4CC5CC(C4)CC3C5)CC2)c2c(Br)cccc21 (stereo not drawn) , answer whether its pIC50 meets or surpasses 9. t

###

METHOD: Oral bioavailability in cynomolgus monkey at 2 mg/kg
Format: ADME, organism-based, Macaca fascicularis
RUN PARAMETERS: in vivo
PROPERTY NAME: bioavailability (%)
Numbers only, in %.

Any idea what bioavailability was measured for O=C(O)CC1CC2(CCN(C(=O)NC3C4CC5CC(C4)CC3C5)CC2)c2c(Br)cccc21 (stereo unspecified) ? 31
